B1: POU domain, class 3, transcription factor 4, residues 280 to 335; numbered along this chain, P49335 (parent)
chain: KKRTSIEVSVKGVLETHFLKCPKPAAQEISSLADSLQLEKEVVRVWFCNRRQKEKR

Variants of: B1
Test: abundance fitness (aPCA) (normalised: wild type 0, dead -1); higher = more abundant; growth selection in yeast, the domain comes from the species named
Details: Homo sapiens
So basically every entry gets a class from its abundance fitness, ranges being low class (below -0.8), middle class (-0.8 to below -0.3), high class (-0.3 or more)

Check out these entries, answers already filled in.
>  <Mutation name>
E41T

>  <Qualitative label>
middle class

$$$$
>  <Mutation name>
R3I

>  <Qualitative label>
high class

$$$$
>  <Mutation name>
E39Q

>  <Qualitative label>
middle class

$$$$
>  <Mutation name>
A25S

>  <Qualitative label>
high class

$$$$
>  <Mutation name>
Q52F

>  <Qualitative label>
low class

$$$$
>  <Mutation name>
D34S

>  <Qualitative label>
middle class

$$$$

-- ask Into which category would you place "K53A" ?
-- reply high class

-- ask And what about the variant "A33N" ?
-- reply low class

-- ask And what about the variant "E41P" ?
-- reply low class

-- ask And what about the variant "Q27P" ?
-- reply middle class

-- ask And what about the variant "F47G" ?
-- reply middle class

-- ask And what about the variant "A25D" ?
-- reply high class

-- ask And what about the variant "V45W" ?
-- reply middle class

-- ask And what about the variant "P24G" ?
-- reply low class
